Test system: CCRIS mutagenicity, Ames/micronucleus/aberration tests
Experiment: CCRIS mutagenicity studies
Conditions: Test System: AMES SALMONELLA TYPHIMURIUM; Strain/Indicator: TA100; Metabolic Activation: RAT, LIVER, S-9, PHENOBARBITAL; Method: STANDARD PLATE
Active and inactive are the calls of the source. The rule behind the calls is not given here.
Outcome codes: active, inactive

chem.smiles: Nc1ccc2cc3ccccc3cc2c1
cat: active
--
chem.smiles: Cc1c2ccncc2c(C)c2c1[nH]c1ccc(N)cc12
cat: inactive
--
chem.smiles: C[n+]1ccccc1-c1cccc[n+]1C
cat: active
--
chem.smiles: O=c1c(O)c(-c2ccc(O)c(O)c2)oc2cc(O)cc(O)c12
cat: active
--
chem.smiles: CC(=O)Nc1ccc2[nH]c3ccccc3c2c1
cat: inactive
--
chem.smiles: N=C(N)c1cc2ccc(Br)cc2[nH]1
cat: inactive
--
chem.smiles: N=C(N)c1ccc2c(N)c(C(=N)N)[nH]c2c1
cat: inactive
--
chem.smiles: O=C(O)/C(Cl)=C(\C(=O)O)C(Cl)Cl
cat: inactive
--
chem.smiles: COc1cc2nc3occc3c(OC)c2cc1OC
cat: active
--
chem.smiles: Cl
cat: inactive
--
chem.smiles: O=[N+]([O-])c1cccc2c1[nH]c1ccccc12
cat: inactive
--
chem.smiles: O=C/C(=C(/Cl)C(=O)O)C(Cl)Cl
cat: inactive
--
chem.smiles: COc1cc2c(c3oc(=O)c4c(c13)CCC4=O)[C@@H]1C=CO[C@@H]1O2
cat: active
--
chem.smiles: Nc1cc(S(=O)(=O)O)cc2c1C(=O)/C(=N/Nc1ccc(-c3ccc(N/N=C4/C(=O)c5c(N)cc(S(=O)(=O)O)cc5C=C4S(=O)(=O)O)cc3)cc1)C(S(=O)(=O)O)=C2
cat: inactive
--
chem.smiles: Nc1cc2c(cc1[N+](=O)[O-])[nH]c1ccccc12
cat: active
--
chem.smiles: CC(=O)C(C)=O
cat: active
